# Test system: PC-3 human carcinoma of prostate
# assay notes: Tumor cell inhibition ratio, CCK-8 kit, PC-3
# details: read-out: Antiproliferative effect (inhibition ratio) PC-3
endpoint name: inhibition at 10 µM (%)
Your answer is read as %, so omit the unit and give the number.

Solved cases below.
1. COCCOc1cc2c(cc1OCCOC)C1=Nc3cccc(C(F)(F)F)c3CN1C=N2 [Compound V-9] = 16.4
2. COCCOc1cc2c(cc1OCCOC)C1=Nc3cc(O)ccc3CN1C=N2 [Compound V-18] = 37
3. COCCOc1cc2c(cc1OCCOC)C1=Nc3cccc(Cl)c3CN1C=N2.Cl [Compound V-1, hydrochloride monohydrate] = 51.6
4. COc1cc2c(cc1OCCCN1CCCC1)C1=Nc3cccc(Cl)c3CN1C=N2 [Compound V-24] = 53.5
5. C#Cc1ccc2c(c1)N=C1c3cc(OCCOC)c(OCCOC)cc3N=CN1C2 [Compound V-19] = 62.2
6. COCCOc1cc2c(cc1OCCOC)C1=Nc3cc(C#N)ccc3CN1C=N2 [Compound V-17] = 28.1
7. COCCOc1cc2c(cc1OCCOC)C1=Nc3cccc(C#N)c3CN1C=N2 [Compound V-7] = 15.9
8. COCCOc1cc2c(cc1OCCOC)C1=Nc3cc(Cl)ccc3C(C)N1C=N2.O=C(O)CC(O)C(=O)O (stereo not shown) [Compound V-22, malate] = 64

Find the recorded inhibition at 10 µM belonging to Br.COCCOc1cc2c(cc1OCCOC)C1=Nc3cccc(N)c3CN1C=N2 [Compound V-6, hydrobromide trihydrate] and report it. 53.4

Form field: reported inhibition at 10 µM of COCCOc1cc2c(cc1OCCOC)C1=Nc3cccc([N+](=O)[O-])c3CN1C=N2 [Compound V-5] 32.5

# inhibition at 10 µM lookup, item COc1cc2c(cc1OCCCN1CCOCC1)C1=Nc3ccc(F)c(Cl)c3CN1C=N2 [Compound V-23, di-p-toluenesulfonate] 30.7

// inhibition at 10 µM lookup, key: COCCOc1cc2c(cc1OCCOC)C1=Nc3cccc(OC)c3CN1C=N2 [Compound V-10] 9.39

Please report the recorded inhibition at 10 µM for CS(=O)(=O)CCNCc1ccc(-c2ccc3c(c2)C2=Nc4ccc(OCc5cccc(F)c5)c(Cl)c4CN2C=N3)o1 [Compound V-33] . 16.5

Which inhibition at 10 µM is listed for COCCOc1cc2c(cc1OCCOC)C1=Nc3cc(Cl)ccc3CN1C=N2 [Compound V-15] ? 42.4

Quick one: inhibition at 10 µM for COCCOc1cc2c(cc1OCCOC)C1=Nc3cccc(Br)c3CN1C=N2.Cl [Compound V-2, hydrochloride hemihydrate] ? 72.2

Look up inhibition at 10 µM for this molecule: C#Cc1cccc2c1CN1C=Nc3cc(OC)c(OCCCN4CCOCC4)cc3C1=N2 [Compound V-26] 5.86
